src = patent US20240252488A1

- SUBJECT_OF_TEST: MLKL (Homo sapiens)
- ASSAY_TEXT: MLKL degradation assay in HepG2 cell line (western blot)
- Format: cell-based
- Parameters: endogenous in cells; host or cells: HepG2 or HaCaT
- CONDITION_CONTEXT: compound 1 μM; cell line not given
MEASURED_QUANTITY: Degradation assay (Degradation %) 1 μM

MOLECULE | UNITS_TEXT | Degradation assay (Degradation %) 1 μM
Nc1ncc(-c2cnn(C3CCN(CCCN4CCN(c5cccc6c5C(=O)N(C5CCC(=O)NC5=O)C6=O)CC4)CC3)c2)nc1C(=O)OC(C(=O)Nc1ccc(F)cc1)c1ccccc1 (stereo not drawn) [TDH-245] | % | 67.67
Nc1ncc(-c2cnn(C3CCN(CCCN4CCN(C(=O)C5CCN(c6ccc7c(c6)C(=O)N(C6CCC(=O)NC6=O)C7=O)CC5)CC4)CC3)c2)nc1C(=O)OC(C(=O)Nc1ccc(F)cc1)c1ccccc1 (stereo not drawn) [TDH-240] | % | 88.47
Nc1ncc(-c2cnn(C3CCN(CC4CCN(CCC5CCN(C(=O)Cc6cccc(NC7=CC(=O)N(C8CCC(=O)NC8=O)C7=O)c6)CC5)CC4)CC3)c2)nc1C(=O)O[C@@H](C(=O)Nc1ccc(F)cc1)c1ccccc1 (stereo partly drawn) [TDH-507] | % | 82.75

----------
- SUBJECT_OF_TEST: UniProt Q8NB16
- Sequence (Q8NB16 1-471): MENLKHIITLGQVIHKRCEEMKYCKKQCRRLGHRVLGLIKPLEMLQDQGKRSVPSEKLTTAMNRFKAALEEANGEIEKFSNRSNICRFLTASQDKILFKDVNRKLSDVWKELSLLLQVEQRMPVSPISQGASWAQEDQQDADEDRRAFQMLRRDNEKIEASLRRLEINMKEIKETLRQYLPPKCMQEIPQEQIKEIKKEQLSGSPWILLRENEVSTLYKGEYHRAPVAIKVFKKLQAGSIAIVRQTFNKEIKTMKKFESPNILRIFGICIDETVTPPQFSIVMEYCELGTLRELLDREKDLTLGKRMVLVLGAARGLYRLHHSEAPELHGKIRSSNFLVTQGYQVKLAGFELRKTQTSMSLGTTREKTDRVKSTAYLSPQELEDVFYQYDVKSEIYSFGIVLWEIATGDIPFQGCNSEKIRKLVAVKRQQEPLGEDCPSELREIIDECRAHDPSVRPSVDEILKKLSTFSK
- ASSAY_TEXT: MLKL degradation assay in HepG2 cell line (western blot)
- Assay type: cell-based
- Design: endogenous in cells; host or cells: HepG2 or HaCaT
- CONDITION_CONTEXT: compound 1 μM; cell line not given
MEASURED_QUANTITY: Degradation assay (Degradation %) 1 μM

COMPOUND | UNITS_TEXT | Degradation assay (Degradation %) 1 μM
Nc1ncc(-c2cnn(C3CCN(CCCCCCNC(=O)C4CCN(c5cccc6c5C(=O)N(C5CCC(=O)NC5=O)C6=O)CC4)CC3)c2)nc1C(=O)O[C@@H](C(=O)Nc1ccc(F)cc1)c1ccccc1 (stereo partly drawn) [TDH-108] | % | 48.06

P = Nc1ncc(-c2cnn(C3CCN(C(=O)CCC4CCN(C(=O)COc5ccc6c(c5)C(=O)N(C5CCC(=O)NC5=O)C6=O)CC4)CC3)c2)nc1C(=O)O[C@@H](C(=O)Nc1ccc(F)cc1)c1ccccc1 (stereo partly drawn) [TDH-416]
Q = Nc1ncc(-c2cnn([C@@H]3CCN(CCOCCOCCNC(=O)CNc4ccc5c(c4)C(=O)N(C4CCC(=O)NC4=O)C5=O)C3)c2)nc1C(=O)OC(C(=O)Nc1ccc(F)cc1)c1ccccc1 (stereo partly drawn) [TDH-268]
Between the entries labelled P and Q , which has a larger Degradation assay (Degradation %) 1 μM value on record? Answer by quoting the chosen item's label.
P
(P: 93.24%, Q: 7.05%)
